- Method Description: Liver microsomal stability, dog
- Assay type: in vitro ADME
- Condition Description: male, Beagle, pooled liver microsomes, pH 7.4, Comparative Example 2, read-out: Liver Microsomal Stability T1/2, dog (Table 5)
Outcome Measure: half-life at 3 μM

[
  {
    "Molecule": "CC(C)CCn1c(CN2C(=O)C3(CC3)c3ccccc32)nc2cc(CN)ccc21 [RV039, reference compound]",
    "Experimental Result": "> 1.67 h"
  }
]

---

- Method Description: Liver microsomal stability, rat
- Format: in vitro ADME
- Condition Description: male, Sprague Dawley, pH 7.4; rat liver microsomes, 3 μM compound; read-out: Liver Microsomal Stability T1/2, rat

[
  {
    "Smiles Entry": "NCc1ccc2c(c1)nc(CN1C(=O)C3(CC3)c3ccc(F)cc31)n2CCCC(F)(F)F",
    "half-life at 3 μM": "1.33 h"
  },
  {
    "Smiles Entry": "NCc1ccc2c(c1)nc(CN1C(=O)C3(CC3)c3ccc(F)cc31)n2C1CCOCC1",
    "half-life at 3 μM": "4.1 h"
  }
]

All figures here come from patent US10106539B2.
